Origin of values: ChEMBL document CHEMBL1128487

- assay.system: UniProtKB P30969
- measurement.notes: In vitro inhibition of LH release was determined in rat pituitary cells at a dose of 30 ug of analogue and 1 ng of LHRH
- Assay type: functional, cell-based
- assay.conditions: Pituitary gland cell
Square brackets hold non-standard residues; d marks the D form. Peptide text beside a SMILES is read from it. 2Nal = N[C@@H](Cc1ccc2ccccc2c1)C(=O)O
We label by threshold. Values of Activity strictly beneath 70 are t. Values of 70 and up are f.

compound	label.value
CC(=O)N[C@@H](Cc1ccc2ccccc2c1)C(=O)N[C@@H](CC(C)C)C(=O)N[C@@H](CCCN=C(N)N)C(=O)N[C@@H](C)C(N)=O (Ac-[2Nal]LRA-NH2)	f
CCNC(=O)[C@@H]1CCCN1C(=O)[C@H](CCCN=C(N)N)NC(=O)[C@H](CC(C)C)NC(=O)[C@H](Cc1ccc2ccccc2c1)NC(C)=O (Ac-[2Nal]LRP-NHEt)	t
CC(=O)N[C@@H](Cc1ccc2ccccc2c1)C(=O)N[C@@H](CCCN=C(N)N)C(=O)N[C@@H](C)C(N)=O	t
CC(=O)N[C@@H](Cc1ccc2ccccc2c1)C(=O)NC(CCCCNC(=O)c1ccccn1)C(=O)N[C@@H](CCCCNC(=O)c1ccccn1)C(=O)NC(CCCN=C(N)N)C(=O)NC(C)C(N)=O (stereo in doubt)	f
CC(=O)N[C@@H](Cc1ccc2ccccc2c1)C(=O)N[C@@H](Cc1ccc(O)cc1)C(=O)N[C@@H](Cc1ccc2ccccc2c1)C(=O)N[C@@H](CCCN=C(N)N)C(=O)N[C@@H](C)C(N)=O (Ac-[2Nal]Y[2Nal]RA-NH2)	t

Then there is this compound:
I wonder whether CC(=O)N[C@@H](Cc1ccc2ccccc2c1)C(=O)N[C@@H](C)C(N)=O (Ac-[2Nal]-Ala-NH2) has Activity below 70. Can you tell?
f

====

- assay.system: Gonadotropin-releasing hormone receptor (Rattus norvegicus)
- Sequence (whole entry): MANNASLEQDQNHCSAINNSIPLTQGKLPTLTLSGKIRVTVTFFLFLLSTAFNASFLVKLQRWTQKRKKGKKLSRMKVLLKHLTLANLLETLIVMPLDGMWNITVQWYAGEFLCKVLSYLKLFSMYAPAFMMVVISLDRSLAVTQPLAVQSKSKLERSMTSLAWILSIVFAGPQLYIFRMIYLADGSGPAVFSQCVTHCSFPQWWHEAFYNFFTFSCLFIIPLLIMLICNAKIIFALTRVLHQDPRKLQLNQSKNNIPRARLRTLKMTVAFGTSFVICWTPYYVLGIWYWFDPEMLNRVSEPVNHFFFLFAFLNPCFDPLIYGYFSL
- measurement.notes: In vitro inhibition of LH release determined in rat pituitary cells at a dose of 3 ug of analogue and 1 ng of LHRH
- Format: functional, cell-based
- assay.conditions: Pituitary gland cell
Square brackets hold non-standard residues; d marks the D form. Peptide text beside a SMILES is read from it. * marks the point of attachment. ξ: configuration not given here. 2Nal = N[C@@H](Cc1ccc2ccccc2c1)C(=O)O; ξLys(iPr) = CC(C)NCCCCC(N)C(=O)O; Picolinoyl = O=C(c1ccccn1)*
Consider the following compounds; for each one, report its Activity.
One number for each entry.

Below: 2 compounds and their reported Activity.
compound	reported.property	quantitative.readout
CCNC(=O)[C@@H]1CCCN1C(=O)[C@H](CCCN=C(N)N)NC(=O)[C@H](CC(C)C)NC(=O)[C@@H](Cc1cccnc1)NC(=O)[C@H](Cc1ccc(O)cc1)NC(=O)[C@H](CO)NC(=O)[C@@H](Cc1ccc2ccccc2c1)NC(C)=O	Activity	14
CC(=O)NC(Cc1ccc2ccccc2c1)C(=O)N[C@@H](CCCCNC(=O)c1ccccn1)C(=O)N[C@@H](CCCN=C(N)N)C(=O)NC(C)C(N)=O (single isomer, unassigned)	Activity	145

Hey, quick one: what's Activity for each of these?
1. CC(=O)N[C@@H](Cc1ccc(Cl)cc1)C(=O)N[C@@H](Cc1cccnc1)C(=O)N[C@@H](CO)C(=O)N[C@@H](Cc1ccc(O)cc1)C(=O)NC(Cc1ccc2ccccc2c1)C(=O)N[C@@H](CC(C)C)C(=O)N[C@@H](CCCN=C(N)N)C(=O)N1CCC[C@H]1C(=O)N[C@H](C)C(N)=O (stereo in doubt)
2. CC(=O)N[C@@H](Cc1ccc2ccccc2c1)C(=O)N[C@@H](CCCCNC(=O)c1ccccn1)C(=O)NC(CCCCNC(C)C)C(=O)N1CCC[C@H]1C(N)=O (some centres undefined) (Ac-[2Nal]K(Picolinoyl)[ξLys(iPr)]P-NH2)

77
150

====

- assay.system: Gonadotropin-releasing hormone receptor (Rattus norvegicus) (UniProt P30969)
- Sequence (whole entry): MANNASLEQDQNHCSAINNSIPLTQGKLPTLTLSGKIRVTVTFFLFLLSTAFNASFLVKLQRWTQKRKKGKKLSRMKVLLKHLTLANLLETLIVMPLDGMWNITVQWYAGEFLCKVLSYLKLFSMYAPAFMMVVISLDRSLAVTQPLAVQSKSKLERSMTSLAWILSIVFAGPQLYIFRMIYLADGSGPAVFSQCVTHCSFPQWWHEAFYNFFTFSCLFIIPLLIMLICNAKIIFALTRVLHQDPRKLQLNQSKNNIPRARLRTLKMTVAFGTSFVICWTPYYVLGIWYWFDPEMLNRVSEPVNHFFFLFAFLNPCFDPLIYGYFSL
- measurement.notes: In vitro inhibition of LH release in rat pituitary cells at a dose of 1 ug of analogue and 1 ng of LHRH.
- Format: functional, cell-based
- assay.conditions: Pituitary gland cell
Square brackets hold non-standard residues; d marks the D form. Peptide text beside a SMILES is read from it. * marks the point of attachment. ξ: configuration not given here. 2Nal = N[C@@H](Cc1ccc2ccccc2c1)C(=O)O; ξLys(iPr) = CC(C)NCCCCC(N)C(=O)O; Picolinoyl = O=C(c1ccccn1)*
For each record, write down the corresponding Activity.

Can you give me Activity for all of these, one by one?
1. CC(=O)N[C@H](Cc1ccc2ccccc2c1)C(=O)N[C@@H](CO)C(=O)N[C@@H](Cc1ccc(O)cc1)C(=O)N[C@H](Cc1ccc2ccccc2c1)C(=O)N[C@@H](CC(C)C)C(=O)N[C@@H](CCCN=C(N)N)C(=O)N1CCC[C@H]1C(=O)NCC(N)=O
2. CC(=O)N[C@H](Cc1ccc2ccccc2c1)C(=O)N[C@@H](CO)C(=O)N[C@@H](Cc1ccc(O)cc1)C(=O)N[C@H](CCCCNC(=O)c1ccccn1)C(=O)N[C@@H](CC(C)C)C(=O)N[C@@H](CCCN=C(N)N)C(=O)N1CCC[C@H]1C(=O)N[C@H](C)C(N)=O
3. CC(=O)N[C@@H](Cc1ccc2ccccc2c1)C(=O)N[C@@H](CO)C(=O)N[C@@H](Cc1ccc(O)cc1)C(=O)N[C@@H](Cc1cccnc1)C(=O)N[C@@H](CC(C)C)C(=O)N[C@@H](CCCN=C(N)N)C(=O)N1CCC[C@H]1C(=O)N[C@H](C)C(N)=O
4. CC(=O)N[C@@H](Cc1ccc2ccccc2c1)C(=O)N[C@@H](CCCCNC(=O)c1ccccn1)C(=O)NC(CCCCNC(C)C)C(=O)N1CCC[C@H]1C(N)=O (some centres not stated) (Ac-[2Nal]K(Picolinoyl)[ξLys(iPr)]P-NH2)
5. CCNC(=O)[C@@H]1CCCN1C(=O)[C@H](CCCCNC(C)C)NC(=O)[C@H](CC(C)C)NC(=O)[C@H](CCCCNC(=O)c1ccccn1)NC(=O)[C@H](Cc1ccc(O)cc1)NC(=O)[C@H](CO)NC(=O)[C@H](Cc1ccc2ccccc2c1)NC(C)=O
6. CCNC(=O)[C@@H]1CCCN1C(=O)[C@H](CCCN=C(N)N)NC(=O)[C@H](CC(C)C)NC(=O)[C@H](Cc1ccc2ccccc2c1)NC(=O)[C@H](Cc1ccc2ccccc2c1)NC(C)=O (Ac-[2Nal][2Nal]LRP-NHEt)

[50, 67, 33, 186, 118, 145]

Please report Activity for the following compound: CC(=O)NC(Cc1ccc2ccccc2c1)C(=O)N[C@@H](CO)C(=O)N[C@@H](Cc1ccc(O)cc1)C(=O)NC(Cc1ccc2ccccc2c1)C(=O)N[C@@H](CC(C)C)C(=O)N[C@@H](CCCN=C(N)N)C(=O)N1CCC[C@H]1C(=O)N[C@H](C)C(N)=O (stereo in doubt)
7

====

Please respond with reported Activity for every item in the list.
- assay.system: Gonadotropin-releasing hormone receptor (Rattus norvegicus)
- measurement.notes: In vitro inhibition of LH release was determined in rat pituitary cells at a dose of 0.3 ug of analogue and 1 ng of LHRH
- Type: functional, cell-based
- assay.conditions: Pituitary gland cell
One number for each entry.

Recorded Activity, per entry:
compound	Activity
CC(=O)N[C@@H](Cc1ccc2ccccc2c1)C(=O)N[C@@H](CO)C(=O)N[C@@H](Cc1ccc(O)cc1)C(=O)N[C@@H](Cc1cccnc1)C(=O)N[C@@H](CC(C)C)C(=O)N[C@@H](CCCN=C(N)N)C(=O)N1CCC[C@H]1C(=O)N[C@H](C)C(N)=O	72
CC(=O)N[C@H](Cc1ccc2ccccc2c1)C(=O)N[C@@H](CO)C(=O)N[C@@H](CCCCNC(=O)c1ccccn1)C(=O)N[C@H](CCCCNC(=O)c1ccccn1)C(=O)N[C@@H](CC(C)C)C(=O)N[C@@H](CCCN=C(N)N)C(=O)N1CCC[C@H]1C(=O)N[C@H](C)C(N)=O	60

Give one value of Activity per listed compound.
1. CCNC(=O)[C@@H]1CCCN1C(=O)C(CCCN=C(N)N)NC(=O)[C@H](CC(C)C)NC(=O)[C@H](CCCCNC(=O)c1ccccn1)NC(=O)C(CCCCNC(=O)c1ccccn1)NC(=O)[C@H](CO)NC(=O)[C@H](Cc1ccc2ccccc2c1)NC(C)=O (stereo partly drawn)
2. CC(=O)N[C@@H](Cc1ccc(Cl)cc1)C(=O)N[C@@H](Cc1cccnc1)C(=O)N[C@@H](CO)C(=O)N[C@@H](Cc1ccc(O)cc1)C(=O)NC(Cc1ccc2ccccc2c1)C(=O)N[C@@H](CC(C)C)C(=O)N[C@@H](CCCN=C(N)N)C(=O)N1CCC[C@H]1C(=O)N[C@H](C)C(N)=O (stereo in doubt)
3. CC(=O)NC(Cc1ccc2ccccc2c1)C(=O)N[C@@H](Cc1ccc(Cl)cc1)C(=O)N[C@@H](CO)C(=O)N[C@@H](Cc1ccc(O)cc1)C(=O)NC(Cc1ccc2ccccc2c1)C(=O)N[C@@H](CC(C)C)C(=O)N[C@@H](CCCN=C(N)N)C(=O)N1CCC[C@H]1C(=O)N[C@H](C)C(N)=O (stereo in doubt)
4. CCNC(=O)[C@@H]1CCCN1C(=O)[C@H](CCCCNC(C)C)NC(=O)[C@H](CC(C)C)NC(=O)[C@H](CCCCNC(=O)c1ccccn1)NC(=O)[C@H](Cc1ccc(O)cc1)NC(=O)[C@H](CO)NC(=O)[C@H](Cc1ccc2ccccc2c1)NC(C)=O
5. CC(=O)N[C@H](Cc1ccc2ccccc2c1)C(=O)N[C@H](Cc1cccnc1)C(=O)N[C@@H](CO)C(=O)N[C@@H](Cc1ccc(O)cc1)C(=O)N[C@H](Cc1ccc2ccccc2c1)C(=O)N[C@@H](CC(C)C)C(=O)N[C@@H](CCCN=C(N)N)C(=O)N1CCC[C@H]1C(=O)N[C@H](C)C(N)=O

27
152
14
157
6

Return reported Activity for target or system Gonadotropin-releasing hormone receptor (Rattus norvegicus), item CC(=O)NC(Cc1ccc2ccccc2c1)C(=O)N[C@@H](CO)C(=O)N[C@@H](Cc1ccc(O)cc1)C(=O)NC(Cc1ccc2ccccc2c1)C(=O)N[C@@H](CC(C)C)C(=O)N[C@@H](CCCCNC(C)C)C(=O)N1CCC[C@H]1C(=O)N[C@H](C)C(N)=O (stereo in doubt) .
104
